biological target: IKZF2 (Homo sapiens (Human), UniProt Q96SW2+Q9UKS7); assay: IKZF2 HiBiT Assay (Jurkat-IKZF2-HiBiT cell line); type: cell-based; settings: Jurkat-IKZF2-HiBiT cells, 24 hours; read-out: HiBit assay degradation analysis DC50
Sequence (Q9UKS7 whole entry): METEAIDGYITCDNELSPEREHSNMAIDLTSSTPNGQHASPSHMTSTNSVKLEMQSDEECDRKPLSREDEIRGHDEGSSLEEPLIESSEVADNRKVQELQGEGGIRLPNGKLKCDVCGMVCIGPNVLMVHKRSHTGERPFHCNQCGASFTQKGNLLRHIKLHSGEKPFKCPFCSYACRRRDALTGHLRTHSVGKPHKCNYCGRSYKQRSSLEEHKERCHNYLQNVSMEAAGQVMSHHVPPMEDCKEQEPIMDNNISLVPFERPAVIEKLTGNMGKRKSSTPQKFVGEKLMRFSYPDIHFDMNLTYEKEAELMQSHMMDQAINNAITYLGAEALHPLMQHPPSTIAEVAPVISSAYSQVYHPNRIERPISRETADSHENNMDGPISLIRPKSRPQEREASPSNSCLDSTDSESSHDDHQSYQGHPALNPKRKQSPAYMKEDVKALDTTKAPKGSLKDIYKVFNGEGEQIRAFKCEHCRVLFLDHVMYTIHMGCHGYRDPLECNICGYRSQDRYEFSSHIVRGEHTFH
Sequence (Q96SW2 whole entry): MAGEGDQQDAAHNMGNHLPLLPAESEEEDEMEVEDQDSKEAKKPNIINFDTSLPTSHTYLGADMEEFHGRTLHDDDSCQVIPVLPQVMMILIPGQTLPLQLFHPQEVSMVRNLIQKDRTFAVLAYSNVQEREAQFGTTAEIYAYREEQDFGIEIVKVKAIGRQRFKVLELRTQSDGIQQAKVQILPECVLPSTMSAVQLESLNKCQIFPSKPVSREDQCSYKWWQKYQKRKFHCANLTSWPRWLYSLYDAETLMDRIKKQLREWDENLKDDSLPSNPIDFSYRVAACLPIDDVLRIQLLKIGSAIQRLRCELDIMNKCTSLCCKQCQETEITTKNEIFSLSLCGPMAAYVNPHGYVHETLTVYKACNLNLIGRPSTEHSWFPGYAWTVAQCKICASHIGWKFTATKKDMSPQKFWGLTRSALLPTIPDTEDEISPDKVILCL
Sequence (Q16531 whole entry partner): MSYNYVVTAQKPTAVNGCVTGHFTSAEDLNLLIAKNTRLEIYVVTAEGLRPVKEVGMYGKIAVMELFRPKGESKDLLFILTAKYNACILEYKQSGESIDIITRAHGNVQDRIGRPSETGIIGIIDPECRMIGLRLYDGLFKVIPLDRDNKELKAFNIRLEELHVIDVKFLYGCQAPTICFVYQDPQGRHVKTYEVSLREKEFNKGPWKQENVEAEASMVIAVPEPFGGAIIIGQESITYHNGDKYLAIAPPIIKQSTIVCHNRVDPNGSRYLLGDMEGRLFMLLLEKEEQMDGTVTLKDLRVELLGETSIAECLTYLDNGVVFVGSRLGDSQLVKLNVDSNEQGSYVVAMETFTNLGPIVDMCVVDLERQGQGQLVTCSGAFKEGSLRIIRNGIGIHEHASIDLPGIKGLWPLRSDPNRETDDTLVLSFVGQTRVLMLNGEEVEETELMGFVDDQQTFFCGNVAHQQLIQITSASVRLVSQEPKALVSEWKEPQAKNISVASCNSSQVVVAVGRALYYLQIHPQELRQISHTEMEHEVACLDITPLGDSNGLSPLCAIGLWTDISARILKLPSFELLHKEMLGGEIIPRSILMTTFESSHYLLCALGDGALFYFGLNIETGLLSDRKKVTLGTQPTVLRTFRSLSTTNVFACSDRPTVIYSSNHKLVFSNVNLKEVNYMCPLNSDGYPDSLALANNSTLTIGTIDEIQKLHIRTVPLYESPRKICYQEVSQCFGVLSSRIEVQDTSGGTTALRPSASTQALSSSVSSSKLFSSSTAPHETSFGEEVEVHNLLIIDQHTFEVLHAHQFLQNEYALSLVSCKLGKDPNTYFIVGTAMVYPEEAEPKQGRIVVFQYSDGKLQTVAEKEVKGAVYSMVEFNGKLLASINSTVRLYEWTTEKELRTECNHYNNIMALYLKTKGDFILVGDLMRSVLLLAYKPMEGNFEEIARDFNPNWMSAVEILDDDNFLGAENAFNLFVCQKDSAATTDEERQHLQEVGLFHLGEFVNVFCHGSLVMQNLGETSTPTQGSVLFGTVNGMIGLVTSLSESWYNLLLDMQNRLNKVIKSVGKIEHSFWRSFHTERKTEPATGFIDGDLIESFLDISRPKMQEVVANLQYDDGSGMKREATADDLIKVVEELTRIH
# maps each entry to its DC50
readout name: DC50

• O=C1CC[C@H](N2Cc3c(ccc4c3OCC43CCN(Cc4cccc(C5CCOC5)c4)CC3)C2=O)C(=O)N1 (stereo partly drawn) = > 500 nM
• O=C1CCC(N2Cc3c(ccc4c3OCC43CCN(CC4CCN(c5ccccc5)CC4)CC3)C2=O)C(=O)N1 (stereo not drawn) = > 500 nM
• O=C1CCC(N2Cc3c(ccc4c3OCC43CCN(Cc4cnn(Cc5ccccc5Cl)c4)CC3)C2=O)C(=O)N1 (stereo not drawn) = < 50 nM
• O=C1CCC(N2Cc3c(ccc4c3OCC43CCN(Cc4cc(Br)cc5[nH]ncc45)CC3)C2=O)C(=O)N1 (stereo not drawn) = < 50 nM
• O=C1CCC(N2Cc3c(ccc4c3OCC43CCN(Cc4cccc(-c5nccs5)c4)CC3)C2=O)C(=O)N1 (stereo not drawn) = < 50 nM
• O=C1CC[C@H](N2Cc3c(ccc4c3OCC43CCN(Cc4ccc5c(c4)NC(=O)C5)CC3)C2=O)C(=O)N1 = 50 to 200 nM
• CC(C)c1cccc(CN2CCC3(CC2)COc2c3ccc3c2CN(C2CCC(=O)NC2=O)C3=O)c1 (stereo not drawn) = > 500 nM
• O=C1CCC(N2Cc3c(ccc4c3OCC43CCN(Cc4cccn5ccnc45)CC3)C2=O)C(=O)N1 (stereo not drawn) = > 500 nM
• O=C1CCC(N2Cc3c(ccc4c3OCC43CCN(Cc4ccc(Cl)cc4F)CC3)C2=O)C(=O)N1 (stereo not drawn) = > 500 nM
• O=C1CCC(N2Cc3c(ccc4c3OCC43CCN(Cc4cccc5c4COC5)CC3)C2=O)C(=O)N1 (stereo not drawn) = < 50 nM
• Cn1cc(-c2ccc(CN3CCC4(CC3)COc3c4ccc4c3CN(C3CCC(=O)NC3=O)C4=O)s2)cn1 (stereo not drawn) = > 500 nM
• COCCn1cc2ccc(CN3CCC4(CC3)COc3c4ccc4c3CN([C@H]3CCC(=O)NC3=O)C4=O)cc2n1 = < 50 nM

###

biological target: IKZF2 (Homo sapiens (Human), UniProt Q96SW2+Q9UKS7); test: IKZF2 HiBiT Assay (Jurkat-IKZF2-HiBiT cell line); assay type: cell-based; conditions: Jurkat-IKZF2-HiBiT cells, 24 hours; read-out: HiBit assay degradation analysis Dmax
readout name: Dmax

• O=C1CCC(N2Cc3c(ccc4c3OCC43CCN(Cc4cccc5c(F)cccc45)CC3)C2=O)C(=O)N1 (stereo not drawn) = > 80%
• Cn1cc(-c2ccc(CN3CCC4(CC3)COc3c4ccc4c3CN(C3CCC(=O)NC3=O)C4=O)s2)cn1 (stereo not drawn) = 40 to 60%
• Cn1cc(-c2cccc(CN3CCC4(CC3)OCc3c4ccc4c3CN(C3CCC(=O)NC3=O)C4=O)c2)cn1 (stereo not drawn) = 40 to 60%

###

DC50 values, listed per item
biological target: IKZF2 (Homo sapiens (Human), UniProt Q96SW2+Q9UKS7); assay: IKZF2 HiBiT Assay (Jurkat-IKZF2-HiBiT cell line); format: cell-based; conditions: Jurkat-IKZF2-HiBiT cells, 24 hours; read-out: HiBit assay degradation analysis DC50
readout name: DC50

- O=C1CCC(N2Cc3c(ccc4c3OCC43CCN(C[C@H]4C[C@@H]4c4ccccc4)CC3)C2=O)C(=O)N1 (relative stereo) [Compound A180]: > 0.5 µM
- O=C1CCC(N2Cc3c(ccc4c3OCC43CCN(Cc4ccnn4-c4ccccc4)CC3)C2=O)C(=O)N1 (stereo not drawn) [Compound A246]: > 0.5 µM
- O=C1CCC(N2Cc3c(ccc4c3OCC43CCN(Cc4cccc(N5CCCC5)c4)CC3)C2=O)C(=O)N1 (stereo not drawn) [Compound A96]: 0.05 to 0.2 µM
- O=C1CCC(N2Cc3c(ccc4c3OCC43CCN(Cc4ccc5ccccc5c4)CC3)C2=O)C(=O)N1 (stereo not drawn) [Compound A34]: < 0.05 µM
- O=C1CCC(N2Cc3c(ccc4c3OCC43CCN(Cc4csc(-c5ccccc5)n4)CC3)C2=O)C(=O)N1 (stereo not drawn) [Compound A82]: > 0.5 µM
- Cn1cc(-c2ccc(CN3CCC4(CC3)COc3c4ccc4c3CN(C3CCC(=O)NC3=O)C4=O)cc2)cn1 (stereo not drawn) [Compound A148]: < 0.05 µM
- O=C1CCC(N2Cc3c(ccc4c3OCC43CCN(Cc4cccc5c(F)cccc45)CC3)C2=O)C(=O)N1 (stereo not drawn) [Compound A35]: < 0.05 µM
- O=C1CCC(N2Cc3c(ccc4c3OCC43CCN(Cc4cnn(-c5ccccc5Cl)c4)CC3)C2=O)C(=O)N1 (stereo not drawn) [Compound A331]: > 0.5 µM
- O=C1CC[C@H](N2Cc3c(ccc4c3OCC43CCN(Cc4ccc5c(c4)C(=O)NC5)CC3)C2=O)C(=O)N1 [Compound A171]: 0.05 to 0.2 µM
- O=C1CC[C@H](N2Cc3c(ccc4c3OCC43CCN(Cc4ccc5cc[nH]c5c4)CC3)C2=O)C(=O)N1 [Compound A172]: < 0.05 µM
- O=C1CCC(N2Cc3c(ccc4c3OCC43CCN(Cc4cnn(Cc5ccc(F)cc5)c4)CC3)C2=O)C(=O)N1 (stereo not drawn) [Compound A237]: 0.05 to 0.2 µM
- Cn1ccc2cccc(CN3CCC4(CC3)COc3c4ccc4c3CN(C3CCC(=O)NC3=O)C4=O)c21 (stereo not drawn) [Compound A74]: 0.05 to 0.2 µM
- O=C1CCC(N2Cc3c(ccc4c3OCC43CCN(Cc4ccc5[nH]ncc5c4)CC3)C2=O)C(=O)N1 (stereo not drawn) [Compound A198]: 0.2 to 0.5 µM
- Cn1ccc(-c2cccc(CN3CCC4(CC3)COc3c4ccc4c3CN([C@H]3CCC(=O)NC3=O)C4=O)c2)n1 [Compound A267]: < 0.05 µM
- N#Cc1ccc(-n2cc(CN3CCC4(CC3)COc3c4ccc4c3CN([C@H]3CCC(=O)NC3=O)C4=O)cn2)cc1 [Compound A359]: < 0.05 µM
- O=C1CCC(N2Cc3c(ccc4c3OCC43CCN(Cc4ncsc4-c4ccccc4)CC3)C2=O)C(=O)N1 (stereo not drawn) [Compound A158]: > 0.5 µM
- O=C1CCC(N2Cc3c(ccc4c3OCC43CCN(Cc4ccn(-c5ccc(Cl)cc5)n4)CC3)C2=O)C(=O)N1 (stereo not drawn) [Compound A243]: 0.05 to 0.2 µM
- O=C1CCC(N2Cc3c(ccc4c3OCC43CCN(Cc4ccc5cc[nH]c5c4)CC3)C2=O)C(=O)N1 (stereo not drawn) [Compound A129]: < 0.05 µM
- O=C1CCC(N2Cc3c(ccc4c3OCC43CCN(Cc4c[nH]c(-c5ccccc5)n4)CC3)C2=O)C(=O)N1 (stereo not drawn) [Compound A84]: > 0.5 µM
- Cc1c(-c2cccc(CN3CCC4(CC3)COc3c4ccc4c3CN([C@H]3CCC(=O)NC3=O)C4=O)c2)cnn1C [Compound A284]: < 0.05 µM
- O=C1CCC(N2Cc3c(ccc4c3OCC43CCN(CC4Cc5ccccc5C4)CC3)C2=O)C(=O)N1 (stereo not drawn) [Compound A22]: > 0.5 µM
